# Tested on: ACHN renal
# TEST DETAILS: NCI tumour cell line growth inhibition, 48 h
Label Satisfied for high-side TGI (at or above 60 µM) and Not satisfied for low-side TGI (below it).

(Q) Hello, I need to know if `COCn1c2ccc(OC(C)=O)cc2c2c(=O)oc(N(C)C)nc21` has measured TGI not below 60 µM. Thanks!
(A) Satisfied

(Q) Hello, I need to know if CC1CCCc2c(C#N)c(N)nc(-c3ccc(Cl)cc3)c21 (stereo unspecified) has measured TGI not below 60 µM. Thanks!
(A) Not satisfied

(Q) Hello, I need to know if Cc1cc(C)c(C2=NOC(c3ccccc3)(c3cc(=O)n(-c4ccccc4)s3)O2)c(C)c1 (stereo unspecified) has measured TGI not below 60 µM. Thanks!
(A) Not satisfied

(Q) Hello, I need to know if C[C@]12CCC3[C@@H](CC[C@@H]4c5nonc5CC[C@]34C)C1CCC(=O)N2 (stereo partly specified) has measured TGI not below 60 µM. Thanks!
(A) Satisfied

(Q) Hello, I need to know if `C/C=C/[P+](c1ccccc1)(c1ccccc1)c1ccccc1` has measured TGI not below 60 µM. Thanks!
(A) Satisfied

(Q) Hello, I need to know if `COC(=O)Cn1c2c(c3c(O)cccc31)C(=O)c1ccccc1-2` has measured TGI not below 60 µM. Thanks!
(A) Satisfied

(Q) Hello, I need to know if `COc1cccc(NC(=O)c2sc3nc4c(cc3c2N)CN(Cc2ccccc2)CC4)c1` has measured TGI not below 60 µM. Thanks!
(A) Satisfied

(Q) Hello, I need to know if `COc1ccc(-c2c(N)n(-c3nc4ccccc4s3)c(=O)c3cc([N+](=O)[O-])ccc23)cc1` has measured TGI not below 60 µM. Thanks!
(A) Satisfied

(Q) Hello, I need to know if `C1=NCCNCCN=Cc2ccc(cc2)OCc2cccc(n2)COc2ccc1cc2` has measured TGI not below 60 µM. Thanks!
(A) Satisfied

(Q) Hello, I need to know if CC(=O)OC1CCn2nnc(CO[Si](C)(C)C(C)(C)C)c21 (stereo unspecified) has measured TGI not below 60 µM. Thanks!
(A) Satisfied

(Q) Hello, I need to know if COC(=O)C(Cc1ccccc1)NC(=O)NC(=O)NC(=O)CI (stereo unspecified) has measured TGI not below 60 µM. Thanks!
(A) Not satisfied

(Q) Hello, I need to know if `COc1cc2c(c(OC)c1OC)-c1ncc3cc(OC)c(OC)c(OC)c3c1C2` has measured TGI not below 60 µM. Thanks!
(A) Satisfied

(Q) Hello, I need to know if CC1=C(CCC(C)N(C)Cc2ccc(OCCCN3CCCC3)cc2)C(C)(C)CCC1 (stereo unspecified) has measured TGI not below 60 µM. Thanks!
(A) Not satisfied

(Q) Hello, I need to know if `O=c1cc(-c2ccccc2)[nH]c2cc(O)ccc12` has measured TGI not below 60 µM. Thanks!
(A) Not satisfied

(Q) Hello, I need to know if `O=C1c2c(c3c4ccccc4[nH]c3c3ccc4ccccc4c23)C(=O)N1CCN1CCCCC1` has measured TGI not below 60 µM. Thanks!
(A) Not satisfied

(Q) Hello, I need to know if CC12NN=NC1C(=O)NC2=O (stereo unspecified) has measured TGI not below 60 µM. Thanks!
(A) Satisfied

(Q) Hello, I need to know if `CS(=O)(=O)Oc1cccc(/C=N/N=C(\N)NO)c1` has measured TGI not below 60 µM. Thanks!
(A) Satisfied

(Q) Hello, I need to know if `O=c1[nH]c2ccccc2nc1-c1c[nH]c2ccccc12` has measured TGI not below 60 µM. Thanks!
(A) Satisfied

(Q) Hello, I need to know if `COc1cc2nc(N3CCCC3)nc(NCC3CCCCC3)c2cc1OC` has measured TGI not below 60 µM. Thanks!
(A) Not satisfied

(Q) Hello, I need to know if `Nc1c2c(nc3ccccc13)CCCCCC2` has measured TGI not below 60 µM. Thanks!
(A) Satisfied
